Provide the reported Population Membrane Permeable-Phenotype (%) of each item.
# System: HEK-293T
# assay-method-text: Multiplex assay against HEK293T
# Assay type: toxicity, cell-based
# condition-details: human, 48 h, 10 µM, compound concentration 10 uM, replicate 1
Numbers only, in %.

Below, each entry is followed by its recorded Population Membrane Permeable-Phenotype (%) result.
INSERT INTO assay_data (molecule, unit_annotation, obs_value) VALUES
  ('COc1cc(Nc2ncc3c(n2)-c2ccc(Cl)cc2C(c2c(F)cccc2OC)=NC3)ccc1C(=O)O', '%', 0),
  ('CC(C)(O)C(=O)N1CCN(c2ccc(C(F)(F)F)c(C3=C(c4c[nH]c5ccccc45)C(=O)NC3=O)c2)CC1', '%', 0),
  ('Cc1cc(O)c(-c2ccc([C@@H](C)CN(C)C)cc2)c2c1[nH]c(=O)c1sccc12', '%', 1),
  ('Nc1nc(CC(=O)Nc2ccc(CCNC[C@H](O)c3ccccc3)cc2)cs1', '%', 0),
  ('S=C(NCCCc1c[nH]cn1)NCCCN(Cc1ccc(Cl)c(Cl)c1)c1ccc(Br)cn1', '%', 0);

Please give Population Membrane Permeable-Phenotype (%), item by item, for the list that follows.
1. COCCCN1CCC(NC(=O)c2cc(Cl)c(N)c3c2OCC3)CC1 [PRUCALOPRIDE]
2. CN1CCN(c2ccc(Nc3c4ccccc4nc4ccccc34)cc2)CC1.Cl.Cl.O
3. CC(C)C[C@H](CO)Nc1nc(S[C@@H](C)c2ccccc2)nc2nc(N)sc12
4. COc1cc(C(=O)N2CC[C@@H](O)[C@@H](N)C2)cc2nc(-c3cc4ccccc4n3CC3CC3)n(C)c12.Cl

// result
1: 1; 2: 0; 3: 0; 4: 0

* * *

# Test system: U2OS
# assay-method-text: Multiplex assay against U2OS
# Assay type: toxicity, cell-based
# condition-details: human, 24 h, 1 µM, compound concentration 1 uM, replicate 2
Provide the reported Population Fragmented Nuclei (%) of each item.
Answers are plain numbers, in %.

Below, each entry is followed by its recorded Population Fragmented Nuclei (%) result.
INSERT INTO results (molecule, target_under_test, observable, unit_annotation, obs_value) VALUES
  ('O=c1ccc2ccc(OCCCCN3CCN(c4cccc5sccc45)CC3)cc2[nH]1 [BREXPIPRAZOLE]', 'U2OS', 'Population Fragmented Nuclei (%)', '%', 12),
  ('COc1cc(C(=O)N2CC[C@@H](O)[C@@H](N)C2)cc2nc(-c3cc4ccccc4n3CC3CC3)n(C)c12.Cl', 'U2OS', 'Population Fragmented Nuclei (%)', '%', 18),
  ('CCCCC[C@H](O)/C=C/[C@H]1[C@H](O)CC(=O)[C@@H]1CCCCCCC(=O)O [ALPROSTADIL]', 'U2OS', 'Population Fragmented Nuclei (%)', '%', 14),
  ('Cc1cc(-c2ccc3c(c2)CC[C@H]3N2CC3(CCN(C(=O)Cc4cn5cc(C)sc5n4)CC3)C2)ncn1 [PF-5190457]', 'U2OS', 'Population Fragmented Nuclei (%)', '%', 21),
  ('Cc1c(Cc2ccc3ccccc3n2)c2cc(F)ccc2n1CC(=O)O [TIMAPIPRANT]', 'U2OS', 'Population Fragmented Nuclei (%)', '%', 19),
  ('CCn1c(-c2nc3cc(C(=O)N4CCCC(N)C4)ccc3n2C)cc2ccccc21.Cl (stereo not given)', 'U2OS', 'Population Fragmented Nuclei (%)', '%', 25),
  ('Cc1cc(O)c(-c2ccc([C@@H](C)CN(C)C)cc2)c2c1[nH]c(=O)c1sccc12', 'U2OS', 'Population Fragmented Nuclei (%)', '%', 41),
  ('CN(C)C/C=C/C(=O)Nc1ccc(C(=O)N2CCCC(Nc3ncc(Cl)c(-c4c[nH]c5ccccc45)n3)C2)cc1 (stereo not given)', 'U2OS', 'Population Fragmented Nuclei (%)', '%', 21);

Please give Population Fragmented Nuclei (%), item by item, for the list that follows.
1. COc1cc2nc(N3CCN(C(=O)COc4c(OC)cccc4C(C)C)CC3)nc(N)c2cc1OC.Cl.Cl
2. COc1cc2nc(N3CCN(C(=O)c4ccco4)CC3)nc(N)c2cc1OC.Cl [PRAZOSIN HYDROCHLORIDE]

// result
[15, 15]

* * *

# System: U2OS
# assay-method-text: Multiplex assay against U2OS
# Assay type: toxicity, cell-based
# condition-details: human, 48 h, 1 µM, compound concentration 1 uM, replicate 1
Provide the reported Population Healthy Nuclei (%) of each item.
Please append the unit to your numeric answer.

Below, each entry is followed by its recorded Population Healthy Nuclei (%) result.
INSERT INTO assay_data (molecule, obs_value) VALUES
  ('CC(C)(C)c1ccc(CSc2cnn(C(C)(C)C)c(=O)c2Cl)cc1 [PYRIDABEN]', '63%'),
  ('Nc1nc(CC(=O)Nc2ccc(CCNC[C@H](O)c3ccccc3)cc2)cs1 [MIRABEGRON]', '72%'),
  ('Cc1ccc(OCC(O)C(C)NC(C)C)c2c1CCC2.Cl (centres undefined)', '73%'),
  ('Cc1nn(C)c2nc(NNC(=O)Nc3cc(Cl)nc(Cl)c3)cc(C(C)C)c12', '75%'),
  ('COc1ccc2c(c1OCc1ccccc1)C[C@@H](C(=O)O)N(C(=O)C(c1ccccc1)c1ccccc1)C2 [OLODANRIGAN]', '70%');

Please give Population Healthy Nuclei (%), item by item, for the list that follows.
1. C=CCN1C[C@H](C(=O)N(CCCN(C)C)C(=O)NCC)C[C@@H]2c3cccc4[nH]cc(c34)C[C@H]21 [CABERGOLINE]
2. C[C@@H]1CC(=O)Nc2cccc(-c3ccc4c(c3)c(-c3cnn(C)c3)nn4C)c2N1
3. Cc1c(Cc2ccc3ccccc3n2)c2cc(F)ccc2n1CC(=O)O [TIMAPIPRANT]
4. CN1CCN2c3ccccc3Cc3ccccc3C2C1.Cl (centres undefined) [MIANSERIN HYDROCHLORIDE]

// result
1: 77%; 2: 73%; 3: 77%; 4: 65%

* * *

# Tested on: Fibroblast
# assay-method-text: Multiplex assay against human fibroblast
# Assay type: toxicity, cell-based
# condition-details: 12 h, 1 µM, compound concentration 1 uM, replicate 1
Non-standard residues stand in square brackets, D forms with d. Residues, ends and D or L forms follow the SMILES beside them.
Provide the reported Population Mitochondria Different-Phenotype (%) of each item.
Numbers only, in %.

Please give Population Mitochondria Different-Phenotype (%), item by item, for the list that follows.
1. Nc1nc(-c2ccco2)c2cnn(Cc3ccccc3F)c2n1
2. COc1cc2nc(N3CCN(C(=O)COc4c(OC)cccc4C(C)C)CC3)nc(N)c2cc1OC.Cl.Cl
3. O=C(Nc1cc(-c2ccccc2)nn1-c1ccccc1F)c1ccc([N+](=O)[O-])cc1
4. N[C@](CC1c2ccccc2Oc2ccccc21)(C(=O)O)[C@H]1C[C@@H]1C(=O)O
5. COC(c1ccccc1)(c1ccccc1)[C@H](Oc1nc(C)cc(C)n1)C(=O)O

// result
1: 2; 2: 6; 3: 1; 4: 1; 5: 4

Please give Population Mitochondria Different-Phenotype (%), item by item, for the list that follows.
1. CC(C)C[C@@H]1NC(=O)[C@@H](C(C)C)NC(=O)[C@@H]2CCCN2C(=O)[C@@H](CC(=O)O)NC(=O)[C@@H](Cc2c[nH]c3ccccc23)NC1=O [BQ-123] (cyclo(L[dW][dD]P[dV]))
2. CCCCCCNC(=O)Nc1ccc(S(=O)(=O)Nc2ccc(CCNC[C@H](O)COc3ccc(O)cc3)cc2)cc1
3. S=C(NCCCc1c[nH]cn1)NCCCN(Cc1ccc(Cl)c(Cl)c1)c1ccc(Br)cn1
4. CN1CCN2c3ccccc3Cc3ccccc3C2C1.Cl (centres undefined) [MIANSERIN HYDROCHLORIDE]

// result
[11, 6, 5, 0]

* * *

Provide the reported Population Tubulin-Different-Phenotype (%) of each item.
# Test system: HEK-293T
# assay-method-text: Multiplex assay against HEK293T
# Assay type: toxicity, cell-based
# condition-details: human, 12 h, 1 µM, compound concentration 1 uM, replicate 2
Non-standard residues stand in square brackets, D forms with d. Residues, ends and D or L forms follow the SMILES beside them.
Give bare numbers, in %.

INSERT INTO results (compound, target_under_test, obs_value) VALUES
  ('C=CCN1C[C@H](C(=O)N(CCCN(C)C)C(=O)NCC)C[C@@H]2c3cccc4[nH]cc(c34)C[C@H]21', 'HEK-293T', 24),
  ('OCCCNc1cc(-c2ccnc(Nc3cccc(Cl)c3)n2)ccn1', 'HEK-293T', 57),
  ('COc1cc2nc(N3CCN(C(=O)COc4c(OC)cccc4C(C)C)CC3)nc(N)c2cc1OC.Cl.Cl', 'HEK-293T', 18),
  ('CN(C)C/C=C/C(=O)Nc1ccc(C(=O)N2CCCC(Nc3ncc(Cl)c(-c4c[nH]c5ccccc45)n3)C2)cc1 (configuration not stated)', 'HEK-293T', 70),
  ('CC(C)(O)C(=O)N1CCN(c2ccc(C(F)(F)F)c(C3=C(c4c[nH]c5ccccc45)C(=O)NC3=O)c2)CC1', 'HEK-293T', 30),
  ('COCCCN1CCC(NC(=O)c2cc(Cl)c(N)c3c2OCC3)CC1 [PRUCALOPRIDE]', 'HEK-293T', 16),
  ('CCn1c(-c2nc3cc(C(=O)N4CCCC(N)C4)ccc3n2C)cc2ccccc21.Cl (configuration not stated)', 'HEK-293T', 20),
  ('CC(C)C[C@@H]1NC(=O)[C@@H](C(C)C)NC(=O)[C@@H]2CCCN2C(=O)[C@@H](CC(=O)O)NC(=O)[C@@H](Cc2c[nH]c3ccccc23)NC1=O [BQ-123] (cyclo(L[dW][dD]P[dV]))', 'HEK-293T', 19);

Please give Population Tubulin-Different-Phenotype (%), item by item, for the list that follows.
1. C[C@@H]1CC(=O)Nc2cccc(-c3ccc4c(c3)c(-c3cnn(C)c3)nn4C)c2N1
2. CCC(=O)OCC(=O)[C@@]1(OC(=O)CC)[C@@H](C)C[C@H]2[C@@H]3CCC4=CC(=O)C=C[C@]4(C)[C@@]3(Cl)[C@@H](O)C[C@@]21C [BECLOMETHASONE DIPROPIONATE]
3. COCCn1c(C)c(C)s/c1=N\C(=O)C1C(C)(C)C1(C)C
4. CC(C)(C)c1ccc(CSc2cnn(C(C)(C)C)c(=O)c2Cl)cc1
5. COc1ccc2[nH]c(I)c(CCNC(C)=O)c2c1

// result
[26, 42, 26, 30, 32]

Hello, the source for this data is ChEMBL document CHEMBL5058577, in case you need it.
